# Test system: human colon carcinoma cell line, SW-480
# assay details: Sulforhodamine B (SRB) tumor cell growth inhibition assay
# Assay type: cell-based
# experimental setup: SW480, 144 h, SW-480 cell line, six days continuous exposure
assay metric: IC50 (nM)
Write it as a number; the unit nM goes unstated.

Memo: CC1=C(CC(=O)NCc2ccccc2)c2cc(F)ccc2/C1=C\c1ccncc1 , reported IC50: 724

* * *

# Test system: SW-480 colon adenocarcinoma cells
# assay details: Apoptosis by DNA fragmentation (Cell Death Detection ELISA plus)
# Type: cell-based, human
# experimental setup: Homo sapiens, SW480; SW-480 cells, 48 hrs
assay metric: EC50 (µM)
Write it as a number; the unit µM goes unstated.

Memo: CC1=C(CC(=O)NCc2ccccc2)c2cc(F)ccc2/C1=C\c1ccncc1 [Example 1] , reported EC50: 29
